Data origin, for the record: ChEMBL document CHEMBL1201862

Test system: PC-3
test.method.notes: NCI tumour cell line growth inhibition, 48 h
Active and inactive are the calls of the source. Cut-off read from the data, not from the text of the source: active = GI50 up to about 1.1 µM and inactive = higher.
Can you answer with just one of these options? active, inactive

Prompt line: Call for entry "c1ccc2c(c1)ccn1ccc3c4ccccc4nc-3c21" :
Response line: active

Prompt line: For "CCCCCCCCCC[C@@H](OC(C)=O)[C@@H]1CC[C@@H]([C@@H]2CC[C@@H]([C@@H](O)CC#C/C=C/CCCCCCC[C@@]3(Sc4ccccc4)C[C@H](C)OC3=O)O2)O1" , what call appears in the results of this test?
Response line: inactive

Prompt line: What outcome does the record of this test show for "C[C@@H]1S[C@H](c2c(F)cccc2Cl)n2c1nc1ccccc12" ?
Response line: inactive

Prompt line: Recorded test outcome, item "O=c1c(C(c2ccc(O)cc2)c2c(O)oc3ccccc3c2=O)c(O)oc2ccccc12"
Response line: inactive

Prompt line: Can you look up the reported call for "CC1(C)CN=C(Nc2ccc(F)c(F)c2)S1" for me?
Response line: inactive

Prompt line: Check the results log: what was the call for "O=[N+]([O-])c1ccc2c(c1)Sc1ccccc1N2" ?
Response line: inactive

Prompt line: Hey, what did the test say about "COC(=O)c1ccc(NCC2=CC(=O)C=CC2=O)cc1" ?
Response line: inactive

Prompt line: Just curious, what result did "CSc1c(C(=O)Nc2ccc(C)cc2)c(N)n(N)c(=O)c1C#N" get here?
Response line: inactive

Prompt line: # outcome recorded in this test, key = "COc1ccccc1NS(=O)(=O)c1ccc2ncn(NS(=O)(=O)c3ccc(Cl)cc3)c(=O)c2c1"
Response line: inactive

Prompt line: What did this assay record as the result for CC(=O)OCC1OC(O[C@@H]2c3c(O)c4c(c(O)c3C3=C(NN(c5ccc([N+](=O)[O-])cc5[N+](=O)[O-])[Se]3=O)[C@@]2(C)O)C(=O)c2ccccc2C4=O)C(OC(C)=O)C(OC(C)=O)C1OC(C)=O (stereo partly specified) ?
Response line: active

Prompt line: Tell me the assay call for Cc1nn(C(=O)Cc2ccccc2)c2c1C(c1ccccc1[N+](=O)[O-])SC(=N)N2 (stereo unspecified) please.
Response line: inactive

Prompt line: So what was the verdict on "CCc1nc(Cl)c(Cl)c(Cl)n1" in this test?
Response line: inactive

Prompt line: Recorded test outcome, item "COc1ccc(NC/C=C/C(=C/COC(C)=O)OC(C)=O)cc1"
Response line: inactive

Prompt line: How was "O=C(Nc1ccccc1F)c1c(O)nc2sccn2c1=O" classified in this test?
Response line: inactive

Prompt line: Could you check what this test reported for "CN(C)CCCN=C(N)N" ?
Response line: inactive

Prompt line: Check the results log: what was the call for "CCCN(CCC)C(=O)c1c(Cl)c2cccnc2n2c(C)cnc12" ?
Response line: inactive

Prompt line: Could you please tell me the result logged for NC(CCP(=O)(O)CCC1C=CC=CC1)C(=O)O (stereo unspecified) in this assay?
Response line: inactive

Prompt line: Assay outcome for "O=Cc1ccc(Oc2c3ccccc3nc3ccccc23)cc1" : what was it?
Response line: inactive

Prompt line: For "COC(=O)Cc1c([C@H]2[C@H](CC(=O)OC)c3ccccc3N2C(C)=O)[nH]c2ccccc12" , what call appears in the results of this test?
Response line: inactive

Prompt line: Please state the recorded outcome for this molecule: "Cc1ccc2c3ccc4c(c3n(C)c2c1)C(=O)C=CC4=O"
Response line: inactive

Prompt line: How was "COC(=O)c1ccc(CCC2=CC(=O)C(Br)=CC2=O)cc1" classified in this test?
Response line: inactive

----------
System: OVCAR-3
test.method.notes: NCI tumour cell line growth inhibition, 48 h
Activity calls are given as the source filed them. Cut-off read from the data, not from the text of the source: active = GI50 up to about 1.1 µM and inactive = higher.
Choose one outcome from this list and give only that: 1.0 (active), 0.0 (inactive)

Prompt line: Answer briefly: the call reported for "Cc1ccc2[nH]c3[nH]c(=O)[nH]c(=O)c3c2c1" in this assay.
Response line: 0.0

Prompt line: Test call, this compound: "COc1c(-c2nc3ccc(N4CCN(C)CC4)cc3[nH]2)cc(OC)c2[nH]c(CO)nc12"
Response line: 0.0

Prompt line: // outcome(item) with item = CC(SCc1ccccc1)C(=O)O (stereo unspecified)
Response line: 0.0

Prompt line: Which outcome was assigned to C[N+](C)(C)CC1CCCC(C[N+](C)(C)C)C1=O (stereo unspecified) in this test?
Response line: 1.0

Prompt line: What was the test verdict on "NNc1ncc2c(n1)-c1ccccc1OC2" ?
Response line: 0.0

Prompt line: Lab log entry: CN1C(=O)C2C(=O)N(Cc3ccccc3)CC(=O)N2c2cccnc21 (stereo unspecified) — outcome as called in the assay?
Response line: 0.0

----------
System: OVCAR-5
test.method.notes: NCI tumour cell line growth inhibition, 48 h
The source made the active and inactive calls. Cut-off read from the data, not from the text of the source: active = GI50 up to about 1.1 µM and inactive = higher. Square brackets hold non-standard residues; d marks the D form. Peptide text beside a SMILES is read from it. * marks the point of attachment. AllylGly = C=CC[CH](N)C(=O)O; Boc = CC(C)(C)OC(=O)*; OtBu = CC(C)(C)O*
Kindly state GI50 for each of the entries shown.

Prompt line: Reported GI50, compound NC(CCP(=O)(O)CCC1C=CC=CC1)C(=O)O (stereo not drawn) : ____
Response line: > 100 µM (inactive)

Prompt line: Could you share which GI50 value was measured for C=CCC(NC(=O)C(CC(=O)OC(C)(C)C)NC(=O)OC(C)(C)C)C(=O)OC (stereo not drawn) (Boc-Asp(OtBu)-[AllylGly]-OMe; configuration not given here) ?
Response line: > 100 µM (inactive)

Prompt line: Need GI50, item COC(=O)c1c(C)cccc1C1CN=NC12Cc1cc(C)cc(C)c1C2=O (stereo not drawn)
Response line: 48 µM (inactive)

Prompt line: Quick one: GI50 of "COc1ccc(C#Cn2nnc3ccccc32)cc1" ?
Response line: > 100 µM (inactive)

Prompt line: Field request: GI50 | item: "Cc1ccc(-c2nc(Cc3n[nH]c(-c4ccc(C)cc4)n3)n[nH]2)cc1"
Response line: > 100 µM (inactive)

Prompt line: // GI50 lookup, key: "O=C(c1ccccc1)N1CCC(CC2(c3cc4ccccc4[nH]3)OCCO2)CC1"
Response line: 64 µM (inactive)

Prompt line: # lookup: GI50 of CC(=O)OCC1OC(O[C@@H]2c3c(O)c4c(c(O)c3C3=C(NN(c5ccc([N+](=O)[O-])cc5[N+](=O)[O-])[Se]3=O)[C@@]2(C)O)C(=O)c2ccccc2C4=O)C(OC(C)=O)C(OC(C)=O)C1OC(C)=O (stereo partly drawn)
Response line: 0.51 µM (active)

Prompt line: Reported GI50, compound "C[C@@H]1C[C@H]2OC(=O)[C@@]3(C)CCC[C@@](C)([C@@H]23)[C@@]1(O)CCc1ccoc1" : ____
Response line: > 100 µM (inactive)

----------
For each record, write down the corresponding GI50.
Test system: HOP-18
test.method.notes: NCI tumour cell line growth inhibition, 48 h
Activity calls are given as the source filed them. Rule as the data show it: active = GI50 up to about 1.1 µM and inactive = higher.

Prompt line: What measured GI50 goes with COc1cccc(NC(=O)C(=O)C(C(C)=O)c2nc3ccc(Cl)cc3nc2O)c1 (stereo unspecified) ?
Response line: > 100 µM (inactive)

Prompt line: Entry Cc1cn(C2CC(O)C(CO)O2)c(=O)n2nnnc12 (stereo unspecified) has what GI50?
Response line: > 100 µM (inactive)

Prompt line: Entry "Cc1cc([N+](=O)[O-])c(C)c2c1[nH]c1ccc(/C(CCC3CCCC3)=N\N)cc12" : reported GI50 = ?
Response line: 11 µM (inactive)

Prompt line: Which GI50 is listed for "Cc1ccc(S(=O)(=O)SCc2ccccc2CSS(=O)(=O)c2ccc(C)cc2)cc1" ?
Response line: > 100 µM (inactive)

Prompt line: Suppose we examine the molecule CC(=O)OCC1OC(n2cc(F)c(=O)[nH]c2=O)C(NC(=O)N(CCCl)N=O)C(OC(C)=O)C1OC(C)=O (stereo unspecified) ; what GI50 value has been reported?
Response line: > 100 µM (inactive)

Prompt line: Record request: GI50 value, item O=C(O)COc1ccc2c3c1C(=O)CCC3CO2 (stereo unspecified)
Response line: > 100 µM (inactive)

Prompt line: Recorded GI50 of Cc1ccc(C)c(C(=O)CC2OC(O)C(Cl)C2Cl)c1 (stereo unspecified) , please.
Response line: > 100 µM (inactive)

Prompt line: Look up GI50: "O=C(/C=C\c1ccc(Cl)c(Cl)c1)c1ccc(Cl)cc1Cl"
Response line: > 10 µM (inactive)

Prompt line: Using the record for CNC(=O)SCC(N)C(=O)O (stereo unspecified) , report its GI50.
Response line: > 78.2 µM (inactive)

Prompt line: Which GI50 is listed for "c1ccc2c(c1)OCCc1cn[nH]c1-2" ?
Response line: > 43.5 µM (inactive)

Prompt line: Could you tell me which GI50 is on file for N#CCc1ccc(C(C#N)/C(CCCC(=O)Nc2cccc([N+](=O)[O-])c2)=N/NC(N)=S)cc1 (stereo unspecified) ?
Response line: > 100 µM (inactive)
